# target-under-test: Cyclin-dependent kinase 2 (Homo sapiens, UniProt P24941)
# protocol-notes: Inhibition of Cyclin-dependent kinase 2
quantity-measured: pIC50
// pIC50: -log10(molar conc.)

Check the records and state pIC50 for O=C1NC(=O)c2c1c1c3ccccc3n3c1c1c2c2ccccc2n1[C@H]1CC[C@@H]3O1 6.27

----------
Overview of recorded IC50 for various compounds
# target-under-test: Cyclin-dependent kinase 2/cyclin E (Homo sapiens, UniProt P24941)
# protocol-notes: Inhibition of human Cyclin E-cyclin-dependent kinase 2
# Type: protein-complex assay

A selection of reference data follows.
{"smiles-repr": "O=C1NC(=O)c2c1c1c3ccccc3[nH]c1c1c2c2cccc3c2n1CCCCC3", "IC50": "> 2000 nM"}
{"smiles-repr": "O=C1NC(=O)c2c1c1c3ccc(C(F)(F)F)cc3[nH]c1c1c2c2cccc3c2n1CCC3", "IC50": "> 2000 nM"}
{"smiles-repr": "O=C1NC(=O)c2c1c1c3ccccc3[nH]c1c1c2c2cccc3c2n1CC3", "IC50": "> 2000 nM"}
{"smiles-repr": "O=C1NC(=O)c2c1c1c3ccc(F)cc3[nH]c1c1c2c2cccc3c2n1CCC3", "IC50": "> 200 nM"}
{"smiles-repr": "O=C1NC(=O)c2c1c1c3ccc(Br)cc3[nH]c1c1c2c2cccc3c2n1CCC3", "IC50": "1000 nM"}

Check the records and state IC50 for O=C1NC(=O)c2c1c1c3ccc(Cl)cc3[nH]c1c1c2c2cccc3c2n1CCC3 > 200 nM

Check the records and state IC50 for O=C1NC(=O)c2c1c1c3ccccc3[nH]c1c1c2c2cccc3c2n1CCCC3 1000 nM

Check the records and state IC50 for O=C1NC(=O)c2c1c1c3ccccc3[nH]c1c1c2c2cccc3c2n1CCC3 > 1000 nM

----------
# target-under-test: UniProt:P11802
quantity-measured: pIC50
// pIC50: -log10(molar conc.)

Enter measured pIC50, system UniProt:P11802, for the compound shown: O=C1NC(=O)c2c1c1c3ccccc3n3c1c1c2c2ccccc2n1[C@H]1CC[C@@H]3O1 6.17

----------
# target-under-test: Cyclin-dependent kinase 4/cyclin D1 (Homo sapiens)
# Sequence (P11802 whole entry): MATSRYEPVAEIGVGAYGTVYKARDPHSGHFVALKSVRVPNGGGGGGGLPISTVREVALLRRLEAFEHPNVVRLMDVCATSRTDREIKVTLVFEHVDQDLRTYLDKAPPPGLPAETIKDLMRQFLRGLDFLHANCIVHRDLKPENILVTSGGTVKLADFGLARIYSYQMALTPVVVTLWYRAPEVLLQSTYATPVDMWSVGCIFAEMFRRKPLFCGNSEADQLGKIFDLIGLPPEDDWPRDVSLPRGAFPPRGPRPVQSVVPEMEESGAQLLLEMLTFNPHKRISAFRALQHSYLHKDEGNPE
# Sequence (P24385 whole entry, further chain): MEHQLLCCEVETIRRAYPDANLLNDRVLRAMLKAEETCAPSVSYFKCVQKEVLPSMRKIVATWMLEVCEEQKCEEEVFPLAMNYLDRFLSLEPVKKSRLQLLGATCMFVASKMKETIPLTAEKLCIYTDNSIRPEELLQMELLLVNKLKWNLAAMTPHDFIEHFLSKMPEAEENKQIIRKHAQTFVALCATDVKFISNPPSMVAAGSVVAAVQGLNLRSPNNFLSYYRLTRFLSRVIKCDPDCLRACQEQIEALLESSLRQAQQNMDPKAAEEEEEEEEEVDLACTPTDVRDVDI
# protocol-notes: Inhibitory activity against human Cyclin D1-cyclin-dependent kinase 4 activity
quantity-measured: IC50

A selection of reference data follows.
{"smiles-repr": "O=C1NC(=O)c2c1c1c3ccc(-c4ccncc4)cc3[nH]c1c1c2c2cccc3c2n1CCC3", "recorded-measurement": "590 nM"}
{"smiles-repr": "COC(=O)c1ccc2c(c1)[nH]c1c2c2c(c3c4cccc5c4n(c13)CCC5)C(=O)NC2=O", "recorded-measurement": "> 2000 nM"}
{"smiles-repr": "O=C1NC(=O)c2c1c1c3ccccc3[nH]c1c1c2c2cccc3c2n1CCCC3", "recorded-measurement": "94 nM"}
{"smiles-repr": "O=C1NC(=O)c2c1c1c3ccc(Br)cc3[nH]c1c1c2c2cccc3c2n1CCC3", "recorded-measurement": "90 nM"}

Below: the item to evaluate.
Enter measured IC50, system Cyclin-dependent kinase 4/cyclin D1 (Homo sapiens), for the molecule shown: NCc1ccc2c(c1)[nH]c1c2c2c(c3c4cccc5c4n(c13)CCC5)C(=O)NC2=O 170 nM

----------
# target-under-test: Cyclin-dependent kinase 4/cyclin D1 (Homo sapiens)
# protocol-notes: Inhibitory activity against human Cyclin D1-cyclin-dependent kinase 4 activity
quantity-measured: IC50 (nM)
Write down the numeric answer in nM and omit the unit.

A selection of reference data follows.
{"smiles-repr": "O=C1NC(=O)c2c1c1c3ccc(C(F)(F)F)cc3[nH]c1c1c2c2cccc3c2n1CCC3", "quantity-measured": "IC50", "recorded-measurement": 290}
{"smiles-repr": "O=C1NC(=O)c2c1c1c3ccccc3[nH]c1c1c2c2cccc3c2n1CCCCC3", "quantity-measured": "IC50", "recorded-measurement": 120}
{"smiles-repr": "O=C1NC(=O)c2c1c1c3ccc(CN4CCOCC4)cc3[nH]c1c1c2c2cccc3c2n1CCC3", "quantity-measured": "IC50", "recorded-measurement": 75}
{"smiles-repr": "O=C1NC(=O)c2c1c1c3ccc(CN4CCCCC4)cc3[nH]c1c1c2c2cccc3c2n1CCC3", "quantity-measured": "IC50", "recorded-measurement": 87}
{"smiles-repr": "O=C1NC(=O)c2c1c1c3ccc(CO)cc3[nH]c1c1c2c2cccc3c2n1CCC3", "quantity-measured": "IC50", "recorded-measurement": 52}

Below: the item to evaluate.
Check the records and state IC50 for O=C1NC(=O)c2c1c1c3ccc(F)cc3[nH]c1c1c2c2cccc3c2n1CCC3 420
